Several publications report IC50 on Mast/stem cell growth factor receptor Kit (Homo sapiens, UniProt P10721); those values are gathered here.
outcome-measure: IC50 (nM)

smiles-record: NC(N)=NCCC[C@H](NCN1CCN(C(=O)c2cc(Cc3n[nH]c(=O)c4ccccc34)ccc2F)CC1)C(=O)O
measurement-target: Mast/stem cell growth factor receptor Kit (Homo sapiens, UniProt P10721)
outcome-measure: IC50
limit-qualifier: >
reported-result: 10000
--
smiles-record: COc1cc(O)ccc1/C=C/C(=O)c1ccc(OCc2nnc(Nc3ccc(C(C)(C)C)cc3)o2)cc1
measurement-target: Mast/stem cell growth factor receptor Kit (Homo sapiens, UniProt P10721)
outcome-measure: IC50
limit-qualifier: =
reported-result: 613
--
smiles-record: CN1CCN(c2ccc(Nc3ncc4cc(C#N)c(=O)n(C5CCCC5)c4n3)cc2)CC1
measurement-target: Mast/stem cell growth factor receptor Kit (Homo sapiens, UniProt P10721)
outcome-measure: IC50
limit-qualifier: =
reported-result: 9
--
smiles-record: CCOc1ccc(Nc2nnc(COc3ccc(C(=O)/C=C/c4ccc(O)cc4OC)cc3)o2)cc1
measurement-target: Mast/stem cell growth factor receptor Kit (Homo sapiens, UniProt P10721)
outcome-measure: IC50
limit-qualifier: =
reported-result: 237
--
smiles-record: COc1cc(O)ccc1/C=C/C(=O)c1ccc(OCc2nnc(Nc3ccc(C(F)(F)F)cc3)o2)cc1
measurement-target: Mast/stem cell growth factor receptor Kit (Homo sapiens, UniProt P10721)
outcome-measure: IC50
limit-qualifier: =
reported-result: 178
